Examples of compounds with documented cell viability follow.
- System: OCI-AML2;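 note: after 48 h exposure read by CellTiter-Glo luminescence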
- Experimental protocol: cell viability relative to vehicle control; higher = less cytotoxic
- Condition info: 10 µM; SRSF2 genotype: P95H/wt
Counter-ions that a name gives are not always drawn.
Form entry: value (%) — number only.

INPUT: Could you please provide reported cell viability for Nc1ccc(C(=O)Nc2cccc(-c3nc(N4CCOCC4)c4oc5ncccc5c4n3)c2)cn1 ? Thanks!
OUTPUT: 86.7

INPUT: Identify cell viability associated with the compound O=C(O)CCCc1ccccc1 [Sodium Phenylbutyrate]
OUTPUT: 94.8

INPUT: Please indicate cell viability recorded for O=C([O-])c1ccccc1.[Na+] [Sodium benzoate]
OUTPUT: 86

INPUT: Dear colleague, please send me the reported cell viability for CNCCc1ccccn1 [Betahistine 2HCl] when you can.
OUTPUT: 89.3

INPUT: Report cell viability, nothing else, for this compound: O=c1[nH]ccc2c(S(=O)(=O)N3CCCNCC3)cccc12 [Hydroxyfasudil (HA-1100)HCl]
OUTPUT: 95.7

Others:
INPUT: In one line, give reported cell viability of the entry S=C(NCc1ccc2c(c1)OCO2)N1CCN(c2ncnc3c2oc2ccccc23)CC1 .
OUTPUT: 28

INPUT: Please supply the value of reported cell viability for the item CCOC(=O)[C@H](CCc1ccccc1)N[C@@H](C)C(=O)N1Cc2cc(OC)c(OC)cc2C[C@H]1C(=O)O [Moexipril HCl]
OUTPUT: 104
